- procedure-summary: LNP size, PDI and zeta potential by Dynamic Light Scattering (Method A)
- Format: physicochemical
- cond: LNP formulated with the lipid, DLS
- Description: The synthesized lipids were tested in term of in vitro transfection efficacy and toxicity on HeLa cells. In order to perform the mentioned biological tests, appropriate LNPs had to be formulated from the synthesized lipids. The formulation technique was different in Method A and B. The particle size, polydispersity index (PDI) and zeta potential of resulting LNPs were determined by means of Dynamic Light Scattering technique (DLS). […]
# note: boundary value 100 nm maps to false (0); Size (nm) below it maps to true (1)

Request: Regarding CCCCC/C=C\C/C=C\CCCCCCCC(OCCCCCCCC/C=C\CCCCCCCC)O[Si](C)(C)OCCCCCCN(CCO)CCO (stereo not shown) , kindly confirm whether its Size (nm) is beneath 100 nm.
Result: false (0)

Request: Regarding CCCCCCCC/C=C\CCCCCCCC(OCCCCCCCCCCCCCCC(C)C)O[Si](C)(C)OCCCCCCN(CCO)CCO (stereo not shown) , kindly confirm whether its Size (nm) is beneath 100 nm.
Result: false (0)

Request: Regarding CCCCC/C=C\C/C=C\CCCCCCCCOC(CCCCCCC/C=C\C/C=C\CCCCC)O[Si](C)(C)OCCCCCCN1CCOCC1 (stereo not shown) , kindly confirm whether its Size (nm) is beneath 100 nm.
Result: false (0)

Request: Regarding CCCCCCCC/C=C\CCCCCCCC(OCC(CCCCCC)CCCCCCCC)O[Si](C)(C)OCCCCCCN(CCO)CCO (stereo not shown) , kindly confirm whether its Size (nm) is beneath 100 nm.
Result: false (0)

Request: Regarding CCCCCCCC/C=C\CCCCCCCC(OCC(CCCCCCCC)SCCCCCCCCCC)O[Si](C)(C)OCCCCCCN(CCO)CCO (stereo not shown) , kindly confirm whether its Size (nm) is beneath 100 nm.
Result: true (1)

Request: Regarding CCCCCCCC/C=C\CCCCCCCCOC(=O)C(C)(C)CC(OCCCCCCCC/C=C\CCCCCCCC)O[Si](C)(C)OCCCCCCN(CCO)CCN(CCO)CCCCCCO[Si](C)(C)OC(CC(C)(C)C(=O)OCCCCCCCC/C=C\CCCCCCCC)OCCCCCCCC/C=C\CCCCCCCC (stereo not shown) , kindly confirm whether its Size (nm) is beneath 100 nm.
Result: true (1)

Request: Regarding CCCCC/C=C\C/C=C\CCCCCCCCOC(CCCCCN(C)CC(O)CO)O[Si](C)(C)OCCCCCCCC/C=C\C/C=C\CCCCC (stereo not shown) , kindly confirm whether its Size (nm) is beneath 100 nm.
Result: false (0)

Request: Regarding CCCCCCCC/C=C\CCCCCCCCOC(=O)C(C)(C)CCC(OCCCCCCCC/C=C\CCCCCCCC)O[Si](C)(C)OCCCCCCN1CCOCC1 (stereo not shown) , kindly confirm whether its Size (nm) is beneath 100 nm.
Result: true (1)

Request: Regarding CCCCC/C=C\C/C=C\CCCCCCCCOC(CCCCCCC/C=C\C/C=C\CCCCC)O[Si](C)(C)OCCCCCCN1CCCCC1 (stereo not shown) , kindly confirm whether its Size (nm) is beneath 100 nm.
Result: false (0)

Request: Regarding CCCCC/C=C\C/C=C\CCCCCCCCOC(CCCCCCC/C=C\C/C=C\CCCCC)O[Si](C)(C)OCCCCCCN1CCN(CCO)CC1 (stereo not shown) , kindly confirm whether its Size (nm) is beneath 100 nm.
Result: false (0)

Request: Regarding CCCCCCCC/C=C\CCCCCCCC(OCCCCCCCCCCCCCCCC)O[Si](C)(C)OCCCCCCN(CCO)CCO (stereo not shown) , kindly confirm whether its Size (nm) is beneath 100 nm.
Result: false (0)

Request: Regarding CCCCCCCC/C=C\CCCCCCCCOC(CCCCCCCCCCCCCCC)O[Si](C)(C)OCCCCCCN(CCO)CCO (stereo not shown) , kindly confirm whether its Size (nm) is beneath 100 nm.
Result: false (0)
